pIC50 reference
- Target Entity: EML4-ALK wt v1 in NIH-3T3 cells (Homo sapiens)
- Sequence (Q9UM73 with tags, fused parts or gaps): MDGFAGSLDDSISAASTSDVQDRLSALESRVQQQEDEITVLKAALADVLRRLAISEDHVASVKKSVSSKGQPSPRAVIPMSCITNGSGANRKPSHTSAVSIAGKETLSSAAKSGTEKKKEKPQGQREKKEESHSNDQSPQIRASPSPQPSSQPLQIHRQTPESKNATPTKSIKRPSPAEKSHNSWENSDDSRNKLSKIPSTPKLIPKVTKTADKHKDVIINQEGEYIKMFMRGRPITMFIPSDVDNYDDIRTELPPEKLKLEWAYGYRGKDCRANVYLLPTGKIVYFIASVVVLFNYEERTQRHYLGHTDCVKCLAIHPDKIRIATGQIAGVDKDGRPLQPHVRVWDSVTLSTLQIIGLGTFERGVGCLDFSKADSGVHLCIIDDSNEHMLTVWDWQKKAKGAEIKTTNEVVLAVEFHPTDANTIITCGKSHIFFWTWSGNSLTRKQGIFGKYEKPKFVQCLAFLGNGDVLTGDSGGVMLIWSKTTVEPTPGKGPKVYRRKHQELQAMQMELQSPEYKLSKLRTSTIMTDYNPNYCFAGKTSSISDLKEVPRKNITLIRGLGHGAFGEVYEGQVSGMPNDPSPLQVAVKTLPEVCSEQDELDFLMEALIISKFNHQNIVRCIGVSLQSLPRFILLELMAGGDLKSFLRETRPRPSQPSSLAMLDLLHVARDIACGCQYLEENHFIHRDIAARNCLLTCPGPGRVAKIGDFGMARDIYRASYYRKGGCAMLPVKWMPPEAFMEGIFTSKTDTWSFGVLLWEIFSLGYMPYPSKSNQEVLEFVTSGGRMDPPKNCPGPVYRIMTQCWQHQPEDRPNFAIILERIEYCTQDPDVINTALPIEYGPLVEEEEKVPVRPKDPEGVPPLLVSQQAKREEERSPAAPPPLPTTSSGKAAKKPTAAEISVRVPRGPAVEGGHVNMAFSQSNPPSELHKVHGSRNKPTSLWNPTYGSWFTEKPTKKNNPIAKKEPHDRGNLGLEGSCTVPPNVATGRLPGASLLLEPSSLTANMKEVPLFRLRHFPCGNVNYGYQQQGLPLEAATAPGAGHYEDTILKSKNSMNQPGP
In simple prose, pIC50 is minus the logarithm base ten of a concentration in moles per litre.

Study these solved cases before continuing.
- Compound: "COc1ccc(F)cc1C(C)Oc1cc(-c2c(C)nnn2C)cnc1N (stereo not shown) [Example 10]"
  Target Entity: "EML4-ALK wt v1 in NIH-3T3 cells (Homo sapiens)"
  Measurement Name: "pIC50"
  Endpoint Value: 6.44
- Compound: "Cc1n[nH]c(C)c1-c1cnc(N)c(OC(C)c2cc(F)ccc2-n2cccn2)c1 (stereo not shown) [Example 52]"
  Target Entity: "EML4-ALK wt v1 in NIH-3T3 cells (Homo sapiens)"
  Measurement Name: "pIC50"
  Endpoint Value: 7.84
- Compound: "C=Cn1nnc(C)c1-c1cnc(N)c(OC(C)c2cc(F)ccc2OC)c1 (stereo not shown) [Example 1]"
  Target Entity: "EML4-ALK wt v1 in NIH-3T3 cells (Homo sapiens)"
  Measurement Name: "pIC50"
  Endpoint Value: 6.84

Exercise: # lookup: EML4-ALK wt v1 in NIH-3T3 cells (Homo sapiens) pIC50, key = C[C@@H](Oc1cc(-c2cccc(CS(C)(=O)=O)c2)cnc1N)c1cc(F)ccc1-n1nccn1 [Example 87]
Solution: 8.38
